# target.entity: guinea pig NK1 receptor (guinea pig, UniProt P30547 1-407)
# Sequence (P30547 whole entry): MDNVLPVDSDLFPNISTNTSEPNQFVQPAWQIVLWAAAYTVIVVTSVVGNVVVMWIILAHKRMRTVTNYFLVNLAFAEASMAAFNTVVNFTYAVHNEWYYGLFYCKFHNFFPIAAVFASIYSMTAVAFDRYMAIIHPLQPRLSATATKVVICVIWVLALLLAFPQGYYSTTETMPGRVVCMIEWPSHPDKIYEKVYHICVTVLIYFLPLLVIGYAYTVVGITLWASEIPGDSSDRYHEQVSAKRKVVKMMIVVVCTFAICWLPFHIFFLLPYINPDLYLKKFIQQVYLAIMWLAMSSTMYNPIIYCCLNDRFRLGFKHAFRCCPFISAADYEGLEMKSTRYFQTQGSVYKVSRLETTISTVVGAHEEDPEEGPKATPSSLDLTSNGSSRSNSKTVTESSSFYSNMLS
# experiment: cell-based or functional assay
Square brackets hold non-standard residues; d marks the D form. Ends that are not written are not given here. * marks the point of attachment. NH(3,5-(CF3)2-benzyl) = FC(F)(F)c1cc(CN*)cc(C(F)(F)F)c1; OBzl(3,5-(CF3)2) = FC(F)(F)c1cc(CO*)cc(C(F)(F)F)c1; Dmt = Cc1cc(O)cc(C)c1C[C@H](N)C(=O)O; NHBn = c1ccc(CN*)cc1
Consider the following binders and their measured GPI/LMMP Substance P antagonist Ke readings.
readout.label: GPI/LMMP Substance P antagonist Ke (nM)

binder	readout.unit	meas.value
Y[dA]GFMPLW-NHBn (also called TY025) [TyrDAlaGlyPheMetProLeuTrpNHBn]	nM	9.9
[Dmt][dA]GFMPLW-{NH(3,5-(CF3)2-benzyl)} (also called TY032) [DmtDAlaGlyPheMetProLeuTrpNHBn(CF3)2]	nM	7.5
[Dmt][dA]GFMPLW-{OBzl(3,5-(CF3)2)} (also called TY033) [DmtDAlaGlyPheMetProLeuTrpOBn(CF3)2]	nM	24.5
Y[dA]GFMPLW-{OBzl(3,5-(CF3)2)} (also called TY005) [TyrDAlaGlyPheMetProLeuTrpOBn(CF3)2]	nM	24.7
[Dmt][dA]GFMPLW-NHBn (also called TY034) [DmtDAlaGlyPheMetProLeuTrpNHBn]	nM	36.9
